Data credit: patent US20240041042A1

Test system: Zea mays (ZEAMX)
Type: in vivo
Measurement parameters: 20 g/ha, ZEAMX, effect in comparison to untreated controls
Endpoint: Post-emergence action against ZEAMX in % (crop plant compatibility) (%)

COC(=O)[C@@H](C)Oc1nn(-c2ncccc2Cl)c(-c2ccc(F)nc2)c1Br [Example I-24]: 10
COC(=O)C(C)COC(=O)C(C)Oc1nn(-c2ccccn2)c(-c2ccc(F)nc2)c1Br (stereo not drawn) [Example I-285]: 10
O=C(COc1nn(-c2ccccn2)c(-c2ccc(F)nc2)c1Br)OCC1CCCO1 (stereo not drawn) [Example I-93]: 20
CS(=O)(=O)NC(=O)COc1nn(-c2ncccc2F)c(-c2ccc(F)nc2)c1Br [Example I-44]: 0
CCOC(=O)COc1nn(-c2ncccc2C)c(-c2cncc(F)c2)c1Cl [Example I-181]: 20
COC(=O)C(C)COC(=O)COc1nn(-c2ncccc2F)c(-c2ccc(F)nc2)c1C1CC1 (stereo not drawn) [Example I-382]: 0

P = CC(C)=NOC(=O)[C@@H](C)Oc1nn(-c2ncccc2F)c(-c2ccc(F)nc2)c1Br [Example I-374]
Q = COC(=O)[C@H](C)COC(=O)COc1nn(-c2ccccn2)c(-c2ccc(F)nc2)c1Br [Example I-76]
R = O=C(O)COc1nn(-c2ccccn2)c(-c2cncc(F)c2)c1Cl [Example I-81]
**Q:** Ordering criterion: Post-emergence action against ZEAMX in % (crop plant compatibility); begin with the maximum. Please, when replying, give the labels in the order that was requested.
**A:** Q, P, R
(Q: 20%, P: 10%, R: 0%)

P = O=C(COc1nn(-c2ncccc2F)c(-c2ccc(F)nc2)c1C1CC1)OCC1CCCO1 (stereo not drawn) [Example I-274]
Q = O=C(COc1nn(-c2ncccc2F)c(-c2ccc(F)nc2)c1C1CC1)OCC1CC1 [Example I-318]
**Q:** For P and Q , which recorded Post-emergence action against ZEAMX in % (crop plant compatibility) is lower? Answer format: the label of the selected item.
**A:** Q
(Q: 0%, P: 10%)
